Recorded values, source PubChem BioAssay.

Assay: inhibitors of hydroxyurea-induced Chk1 phosphorylation, primary screen, imaging, HeLa, phospho-Chk1 nuclear intensity (AID 1187); note: test concentration not given here
Conditions: hydroxyurea-induced phospho-Chk1 immunofluorescence imaging, higher = more signal
Is z-score at least -0.3? Then yes. If not, no.

Compound: COC(=O)Cn1c(C(=O)N2CCCC2)cc2c1C[C@H]1CN(C(=O)c3ccccc3)[C@@](Cc3ccc(OC)cc3)(C(=O)OC)[C@@H]21
Class label: yes
--
Compound: COCCOC(=O)N1C(=O)[C@@]2(c3cc(C#CCNC(N)=O)ccc31)[C@H](c1ccccc1OCCO)N1[C@H](c3ccccc3)[C@H](c3ccccc3)OC(=O)[C@H]1[C@@H]2C(=O)NC[C@H](O)c1ccccc1
Class label: yes
--
Compound: Cc1ccccc1C(O)C1C=CC2C(=O)N(c3ccccc3)C(=O)C2N1Nc1ccc(C#N)cc1 (stereo unspecified)
Class label: no

**Query** # bool: z-score of COC(=O)[C@@]1(Cc2ccccc2CN=[N+]=[N-])N=C(c2ccc(OCCCO)cc2)O[C@H]1c1ccccc1N=[N+]=[N-] >= -0.3
**Result** yes

**Query** # bool: z-score of C=C(COC)/C(=C/C[C@H](OC(C)=O)c1ccc(OCCO)cc1)c1cnc2ccccc2c1 >= -0.3
**Result** no

**Query** # bool: z-score of COc1ccc(CCN2C(=O)[C@@]3(c4ccc([N+](=O)[O-])cc4)CC(=O)N(CC45CC6CC(CC(C6)C4)C5)[C@@H]3c3ccc(CO)cc32)cc1 >= -0.3
**Result** yes

**Query** # bool: z-score of CC(C)N1CC=CC23O[C@@H]4/C=C\CCCOC(=O)C4[C@H]2C(=O)N(CCCCCO)[C@@H]3C1=O (stereo partly specified) >= -0.3
**Result** yes

**Query** # bool: z-score of CCCC=C(CCC)[C@@H](NS(=O)(=O)c1cccc(C(F)(F)F)c1)c1ccc(C(=O)OC)cc1 >= -0.3
**Result** yes

**Query** # bool: z-score of CC[C@H]1C2=C3C(CC[C@H]4C(OC)OC[C@](C)([C@@H]34)N(C(=O)OC(C)(C)C)C2)C(CO)C1CO (stereo partly specified) >= -0.3
**Result** no

**Query** # bool: z-score of O=C(CS)NCCCCCCNC(=O)[C@@H]1C[C@@H]2C(=O)N[C@@H](Cc3ccccc3)C(=O)N2[C@@H]1c1ccc(O)cc1 >= -0.3
**Result** yes

**Query** # bool: z-score of CC(C)[Si](OCCCNS(=O)(=O)c1ccc(Br)cc1)(C(C)C)C(C)C >= -0.3
**Result** no

**Query** # bool: z-score of C=C(CCCC)C(=O)CC[C@@H](OC(=O)c1cccnc1)c1cccc(OCCO)c1 >= -0.3
**Result** no

**Query** # bool: z-score of COCCOC(=O)N1C(=O)[C@@]2(c3ccccc31)[C@H](C(=O)N1CCc3cc(OC)c(OC)cc3C1)[C@H]1C(=O)O[C@H](c3ccccc3)[C@H](c3ccccc3)N1[C@@H]2c1ccccc1OCCO >= -0.3
**Result** yes

**Query** # bool: z-score of COCCCNC(=O)[C@@]1(Sc2ccc(C)cc2)CC(=O)N(Cc2cc(C(F)(F)F)cc(C(F)(F)F)c2)[C@@H]1c1ccc(CO)cc1I >= -0.3
**Result** yes

**Query** # bool: z-score of CN(C)CCCC[C@@H]1NC(=O)[C@@H]2C[C@H](C(=O)NCCCCCNC(=O)CS)[C@H](c3ccc(O)cc3)N2C1=O >= -0.3
**Result** no

**Query** # bool: z-score of COCCOC(=O)N1C(=O)[C@@]2(c3cc(C#CCCO)ccc31)[C@H](c1ccc(OCCO)cc1)N1[C@H](c3ccccc3)[C@H](c3ccccc3)OC(=O)[C@H]1[C@@H]2C(=O)NC[C@H](O)c1ccccc1 >= -0.3
**Result** no

**Query** # bool: z-score of COc1cc(CO)cc(I)c1O[C@H]1C=C(C(=O)NCCO)C[C@@H](NCCc2c[nH]c3ccccc23)[C@@H]1O >= -0.3
**Result** no

**Query** # bool: z-score of Cc1ccc(N2C(=O)c3ccccc3[C@](C)(C(=O)NCC(C)C)[C@@H]2c2ccc(CO)cc2)nc1 >= -0.3
**Result** yes

**Query** # bool: z-score of COc1ccc([Si](C)(C)[C@@H]2[C@@H](CC(=O)N(CCO)Cc3ccccc3)O[C@]3(C(=O)N(Cc4cccc(N5CCC5=O)c4)c4ccccc43)[C@H]2C)cc1 >= -0.3
**Result** yes

**Query** # bool: z-score of CC(C)=C1C(=O)C(c2ccccc2)=C2CN3C(=O)N(CCc4ccccc4)C(=O)[C@]3(Cc3ccccc3)[C@H]21 >= -0.3
**Result** yes
